# credit: the NIST ThermoML archive (doi:10.1021/je060139a)

assay: xn = mol fraction of the nth substance listed; conditions: 308.15 K, Wilhelmy plate method, x1 = 0.65
± gives the expanded uncertainty stated by the source.
READOUT LABEL: surface tension liquid-gas

Known results for molecules:
[[record]]
molecule = "CCOC(=O)c1ccccc1O [ethyl 2-hydroxybenzoate] + CCO"
readout_label = "surface tension liquid-gas"
experimental_value = "28.9 ± 0.4 mN/m"

[[record]]
molecule = "CCOC(=O)CC(C)C [ethyl 3-methylbutanoate] + CCO"
readout_label = "surface tension liquid-gas"
experimental_value = "22.13 ± 0.41 mN/m"

[[record]]
molecule = "CC(=O)OCc1ccccc1 [benzyl ethanoate] + CCO"
readout_label = "surface tension liquid-gas"
experimental_value = "29.94 ± 0.4 mN/m"

[[record]]
molecule = "CCC(=O)OCc1ccccc1 [benzyl propanoate] + CCO"
readout_label = "surface tension liquid-gas"
experimental_value = "28.88 ± 0.4 mN/m"

[[record]]
molecule = "CCOC(=O)CC(C)=O [ethyl 3-oxobutanoate] + CCO"
readout_label = "surface tension liquid-gas"
experimental_value = "27.9 ± 0.41 mN/m"


For the next question, use this molecule.
surface tension liquid-gas lookup needed for COC(=O)c1ccccc1 [methyl benzoate] + CCO , thanks.
29.8 ± 0.41 mN/m

###

assay: xn = mol fraction of the nth substance listed; details: 288.15 K, Wilhelmy plate method, x1 = 0.85
Returns condition met if the recorded surface tension liquid-gas is greater than or equal to 30 mN/m, and condition not met otherwise.

[[record]]
molecule = "CCOC(=O)CC(C)=O [ethyl 3-oxobutanoate] + CCO"
label_value = "condition met"

[[record]]
molecule = "CC(=O)OCc1ccccc1 [benzyl ethanoate] + CCO"
label_value = "condition met"

[[record]]
molecule = "CCC(=O)OCc1ccccc1 [benzyl propanoate] + CCO"
label_value = "condition met"

[[record]]
molecule = "CCOC(=O)CC(C)C [ethyl 3-methylbutanoate] + CCO"
label_value = "condition not met"

[[record]]
molecule = "COC(=O)c1ccccc1 [methyl benzoate] + CCO"
label_value = "condition met"


// next entry
# check: surface tension liquid-gas of CCOC(=O)c1ccccc1O [ethyl 2-hydroxybenzoate] + CCO is greater than or equal to 30 mN/m
condition met

###

assay: refractive index (Na D-line) (dimensionless); conditions: 308.15 K; 101.33 kPa; Liquid; Standard Abbe refractometry
READOUT LABEL: refractive index
The reply should be a number, written without any unit.

Known results for molecules:
[[record]]
molecule = "CCOC(=O)c1ccccc1O [ethyl 2-hydroxybenzoate]"
readout_label = "refractive index"
experimental_value = 1.51573

[[record]]
molecule = "CCOC(=O)CC(C)=O [ethyl 3-oxobutanoate]"
readout_label = "refractive index"
experimental_value = 1.4125

[[record]]
molecule = "CCOC(=O)CC(C)C [ethyl 3-methylbutanoate]"
readout_label = "refractive index"
experimental_value = 1.38931

[[record]]
molecule = "CCC(=O)OCc1ccccc1 [benzyl propanoate]"
readout_label = "refractive index"
experimental_value = 1.49074

[[record]]
molecule = "COC(=O)c1ccccc1 [methyl benzoate]"
readout_label = "refractive index"
experimental_value = 1.50993


refractive index lookup needed for CC(=O)OCc1ccccc1 [benzyl ethanoate] , thanks.
1.49539

###

assay: refractive index (Na D-line) (dimensionless); xn = mol fraction of the nth substance listed; conditions: 308.15 K; 100.5 kPa; Liquid; Standard Abbe refractometry; x1 = 0.95
Listed molecules paired with reported refractive index
The reply should be a number, written without any unit.

Known results for molecules:
[[record]]
molecule = "COC(=O)c1ccccc1 [methyl benzoate] + CCO"
experimental_value = 1.50631

[[record]]
molecule = "CCOC(=O)c1ccccc1O [ethyl 2-hydroxybenzoate] + CCO"
experimental_value = 1.51272

[[record]]
molecule = "CCOC(=O)CC(C)C [ethyl 3-methylbutanoate] + CCO"
experimental_value = 1.38857

[[record]]
molecule = "CC(=O)OCc1ccccc1 [benzyl ethanoate] + CCO"
experimental_value = 1.49262

[[record]]
molecule = "CCOC(=O)CC(C)=O [ethyl 3-oxobutanoate] + CCO"
experimental_value = 1.4112


For the next question, use this molecule.
refractive index lookup needed for CCC(=O)OCc1ccccc1 [benzyl propanoate] + CCO , thanks.
1.48834

###

assay: refractive index (Na D-line) (dimensionless); xn = mol fraction of the nth substance listed; details: 318.15 K; 100.5 kPa; Liquid; Standard Abbe refractometry; x1 = 0.05
Listed molecules paired with reported refractive index
The reply should be a number, written without any unit.

[[record]]
molecule = "COC(=O)c1ccccc1 [methyl benzoate] + CCO"
readout_label = "refractive index"
experimental_value = 1.36738

[[record]]
molecule = "CCC(=O)OCc1ccccc1 [benzyl propanoate] + CCO"
readout_label = "refractive index"
experimental_value = 1.36853

[[record]]
molecule = "CC(=O)OCc1ccccc1 [benzyl ethanoate] + CCO"
readout_label = "refractive index"
experimental_value = 1.36738


refractive index lookup needed for CCOC(=O)CC(C)=O [ethyl 3-oxobutanoate] + CCO , thanks.
1.3572

refractive index lookup needed for CCOC(=O)c1ccccc1O [ethyl 2-hydroxybenzoate] + CCO , thanks.
1.37068

refractive index lookup needed for CCOC(=O)CC(C)C [ethyl 3-methylbutanoate] + CCO , thanks.
1.35545

###

experiment: refractive index (Na D-line) (dimensionless); xn = mol fraction of the nth substance listed; details: 308.15 K; 100.5 kPa; Liquid; Standard Abbe refractometry; x1 = 0.2
READOUT LABEL: refractive index
The reply should be a number, written without any unit.

Known results for molecules:
[[record]]
molecule = "CCOC(=O)CC(C)C [ethyl 3-methylbutanoate] + CCO"
readout_label = "refractive index"
experimental_value = 1.36872

[[record]]
molecule = "CCC(=O)OCc1ccccc1 [benzyl propanoate] + CCO"
readout_label = "refractive index"
experimental_value = 1.41123

[[record]]
molecule = "CCOC(=O)c1ccccc1O [ethyl 2-hydroxybenzoate] + CCO"
readout_label = "refractive index"
experimental_value = 1.41902


refractive index lookup needed for CCOC(=O)CC(C)=O [ethyl 3-oxobutanoate] + CCO , thanks.
1.3758

refractive index lookup needed for CC(=O)OCc1ccccc1 [benzyl ethanoate] + CCO , thanks.
1.40945

refractive index lookup needed for COC(=O)c1ccccc1 [methyl benzoate] + CCO , thanks.
1.41088

###

experiment: xn = mol fraction of the nth substance listed; conditions: 308.15 K, Wilhelmy plate method, x1 = 0.95
Numbers after ± are expanded uncertainties.
READOUT LABEL: surface tension liquid-gas

Known results for compounds:
[[record]]
compound = "CCOC(=O)CC(C)C [ethyl 3-methylbutanoate] + CCO"
experimental_value = "22.41 ± 0.41 mN/m"

[[record]]
compound = "CCOC(=O)CC(C)=O [ethyl 3-oxobutanoate] + CCO"
experimental_value = "30.68 ± 0.42 mN/m"

[[record]]
compound = "CCOC(=O)c1ccccc1O [ethyl 2-hydroxybenzoate] + CCO"
experimental_value = "34.07 ± 0.41 mN/m"

[[record]]
compound = "CC(=O)OCc1ccccc1 [benzyl ethanoate] + CCO"
experimental_value = "34.5 ± 0.41 mN/m"

[[record]]
compound = "COC(=O)c1ccccc1 [methyl benzoate] + CCO"
experimental_value = "34.8 ± 0.42 mN/m"


surface tension liquid-gas lookup needed for CCC(=O)OCc1ccccc1 [benzyl propanoate] + CCO , thanks.
32.8 ± 0.41 mN/m

###

assay: refractive index (Na D-line) (dimensionless); xn = mol fraction of the nth substance listed; conditions: 298.18 K; 100.5 kPa; Liquid; Standard Abbe refractometry; x1 = 0.5
READOUT LABEL: refractive index
The reply should be a number, written without any unit.

refractive index lookup needed for COC(=O)c1ccccc1 [methyl benzoate] + CCO , thanks.
1.46691

refractive index lookup needed for CCOC(=O)CC(C)=O [ethyl 3-oxobutanoate] + CCO , thanks.
1.3991

###

Listed compounds paired with reported refractive index
experiment: refractive index (Na D-line) (dimensionless); xn = mol fraction of the nth substance listed; details: 298.18 K; 100.5 kPa; Liquid; Standard Abbe refractometry; x1 = 0.4
Numbers after ± are expanded uncertainties.

[[record]]
compound = "CC(=O)OCc1ccccc1 [benzyl ethanoate] + CCO"
readout_label = "refractive index"
experimental_value = "1.44767 ± 0.00032"

[[record]]
compound = "CCOC(=O)CC(C)C [ethyl 3-methylbutanoate] + CCO"
readout_label = "refractive index"
experimental_value = "1.38134 ± 0.00033"

[[record]]
compound = "CCOC(=O)c1ccccc1O [ethyl 2-hydroxybenzoate] + CCO"
readout_label = "refractive index"
experimental_value = "1.46177 ± 0.00032"

[[record]]
compound = "CCOC(=O)CC(C)=O [ethyl 3-oxobutanoate] + CCO"
readout_label = "refractive index"
experimental_value = "1.3938 ± 0.0003"


refractive index lookup needed for CCC(=O)OCc1ccccc1 [benzyl propanoate] + CCO , thanks.
1.44801 ± 0.00032

refractive index lookup needed for COC(=O)c1ccccc1 [methyl benzoate] + CCO , thanks.
1.45255 ± 0.00033
